Tested on: recombinant guanylate cyclase reporter cell line
Run description: Action on recombinant guanylate cyclase reporter cell line (MEC)
Format: cell-based
Condition context: in some cases mean values obtained from individual determinations
minimal effective concentration values, listed per item
Metric: minimal effective concentration

{"Compound": "Cc1nc2c(OCc3c(F)cccc3F)cccn2c1C(=O)N[C@H](C)CO [Example 118]", "Metric": "minimal effective concentration", "Data value": "0.3 µM"}
{"Compound": "Cc1nc2c(OCc3ccccc3Br)cccn2c1C(=O)NC(CO)CO [Example 54]", "Metric": "minimal effective concentration", "Data value": "10 µM"}
{"Compound": "Cc1nc2c(OCc3c(F)cccc3F)cccn2c1C(=O)NC(C)(C)CO [Example 34]", "Metric": "minimal effective concentration", "Data value": "0.3 µM"}
{"Compound": "Cc1nc2c(OCC3CCC3)cccn2c1C(=O)NCCC1(O)CCCCC1 [Example 99]", "Metric": "minimal effective concentration", "Data value": "3 µM"}
{"Compound": "Cc1nc2c(OCc3c(F)cccc3F)cccn2c1C(=O)NC(CO)CCC(O)C(F)(F)F (single isomer, unassigned) [Example 138]", "Metric": "minimal effective concentration", "Data value": "0.1 µM"}
{"Compound": "Cc1nc2c(OCc3c(F)cccc3F)cccn2c1C(=O)NCCC1(O)CCCC1 [Example 117]", "Metric": "minimal effective concentration", "Data value": "0.03 µM"}
{"Compound": "CCC(C)[C@H](CO)NC(=O)c1c(C)nc2c(OCC3CCCCC3)cccn12 (some centres unmarked) [Example 96]", "Metric": "minimal effective concentration", "Data value": "3 µM"}
{"Compound": "CCCC[C@@H](NC(=O)c1c(C)nc2c(OCc3c(F)cccc3F)cccn12)C(C)(C)O [Example 147]", "Metric": "minimal effective concentration", "Data value": "0.1 µM"}

The reported measurements were obtained from patent US8778964B2.
